TEST_DETAILS: Microsomal (metabolic) stability, human liver microsomes
CONDITION_LABEL: human, liver microsomes, pH 7.4, Microsomal stability (t1/2), human liver microsomes, 0.5 mg protein/ml, 10 μM compound, 37° C.
Items are presented alongside their recorded half-life at 10 µM.
Just the number please, in h, no unit attached.

Solved cases below.
SMILES: CNCCNS(=O)(=O)c1ccc(NC2CCCCC2)c(NCc2ccccc2)c1.Cl
MEASURED_PARAMETER: half-life at 10 µM
OBS_VALUE: 13.2

SMILES: Cl.NCCNS(=O)(=O)c1ccc(NC2CCCCC2)c(NCc2ccccc2)c1
MEASURED_PARAMETER: half-life at 10 µM
OBS_VALUE: 17.7

Ask | Can you look up the measured half-life at 10 µM of O=S(=O)(NCCN1CCOCC1)c1ccc(NC2CCCCC2)c(NCc2ccccc2)c1 for me?
Reply | 0.98

Ask | Can you look up the measured half-life at 10 µM of Cl.O=S(=O)(NCCN1CCNCC1)c1ccc(NC2CCCCC2)c(NCc2ccccc2)c1 for me?
Reply | 20.5

---

Test system: IMR-32 Neuroblastoma cells
TEST_DETAILS: Erastin-induced ferroptosis in IMR-32 neuroblastoma cells (Sytox Green cell death readout)
Assay type: cell-based
CONDITION_LABEL: Homo sapiens; IMR-32 cells, 10 μM erastin, compounds 1 nM to 1 μM, triplicate; read-out: IC50, antiferroptotic activity in response to erastin-induced ferroptosis
MEASURED_PARAMETER: pIC50
Please note pIC50 is a logarithmic value: minus log10 of concentration in mol/L. Answer with that number alone.

Solved cases below.
COMPOUND: COCCNS(=O)(=O)c1ccc(NC2CCCCC2)c(NCc2ccncc2)c1 [Compound 46]
pIC50: 7.01
--
COMPOUND: CNCCNS(=O)(=O)c1ccc(NC2CCCCC2)c(N)c1.Cl [Compound 27, Hydrochloride]
pIC50: 6.67
--
COMPOUND: CN1CCN(CCNS(=O)(=O)c2ccc(NC3CCCCC3)c(NCc3ccncc3)c2)CC1 [Compound 44]
pIC50: 5.82

Ask | Can you look up the measured pIC50 of Cl.NCCNS(=O)(=O)c1ccc(NC2CCCCC2)c(N)c1 [Compound 28, Hydrochloride] for me?
Reply | 6.51

---

TEST_DETAILS: Tissue distribution in rats 24 h after iv dose
Format: in vivo
CONDITION_LABEL: male, Wistar, rat, kidney, iv, 5 mg/kg, 5 mg/kg iv, after 24 h, one value per rat, read-out: Tissue distribution, Kidney
MEASURED_PARAMETER: concentration at 24 h

Ask | Can you look up the measured concentration at 24 h of Cl.O=S(=O)(NCCN1CCNCC1)c1ccc(NC2CCCCC2)c(NCc2ccccc2)c1 [Compound 39, Hydrochloride] for me?
Reply | 200 ng/g

---

TEST_DETAILS: Tissue distribution in rats 24 h after iv dose
Format: in vivo
CONDITION_LABEL: male, Wistar, rat, lung, iv, 5 mg/kg, 5 mg/kg iv, after 24 h, one value per rat, read-out: Tissue distribution, Lung
MEASURED_PARAMETER: concentration at 24 h
Answer with the value and then the unit.

Ask | Can you look up the measured concentration at 24 h of Cl.O=S(=O)(NCCN1CCNCC1)c1ccc(NC2CCCCC2)c(NCc2ccccc2)c1 [Compound 39, Hydrochloride] for me?
Reply | 480 ng/g

Data credit: patent US11339124B2
